Recorded values, source paper PMC11784839.

- Assay target: tau (Homo sapiens, UniProt P10636)
- Sequence (P10636 623-695 limits assumed): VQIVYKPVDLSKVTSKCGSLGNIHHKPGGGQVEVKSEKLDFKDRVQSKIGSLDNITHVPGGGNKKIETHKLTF
- Assay text: MCE Phenols Library screening, tau biosensor cell seeding assay (AvZ)
- Format: cell-based
- Setup conditions: puncta, replicate 1
The following compounds are shown together with reported raw data 1 values.
Property: raw data 1

# Compound, Assay target, Observed
data = [
    ("O=C(/C=C/c1ccc(O)cc1)c1ccc(O)cc1O", "tau (Homo sapiens, UniProt P10636)", 32143.5),
    ("O=c1ccoc2cc(O)cc(O)c12 [5,7-Dihydroxychromone]", "tau (Homo sapiens, UniProt P10636)", 12131.6),
    ("C[C@H]1O[C@@H](O[C@H]2[C@H](Oc3c(-c4ccc(O)cc4)oc4cc(O)cc(O)c4c3=O)O[C@@H](CO)[C@H](O)[C@H]2O)[C@H](O)[C@@H](O)[C@@H]1O [Kaempferol-3-O-glucorhamnoside]", "tau (Homo sapiens, UniProt P10636)", 19130.8),
    ("COc1ccc(CCC(=O)c2ccc(O)cc2)c(OC)c1", "tau (Homo sapiens, UniProt P10636)", 20023.7),
]

* * *

- Assay target: tau (Homo sapiens, UniProt P10636)
- Assay text: MCE Phenols Library screening, tau biosensor cell seeding assay (AvZ)
- Assay type: cell-based
- Setup conditions: Z score, replicate 2

# Molecule, Z Repl 2
rows = [
    ("C[C@@H]1O[C@@H](O[C@H]2[C@H](Oc3cc(O)c4c(=O)cc(-c5ccc(O)cc5)oc4c3)O[C@H](CO)[C@@H](O)[C@@H]2O)[C@H](O)[C@H](O)[C@H]1O", -0.094),
    ("O=C(O[C@@H]1Cc2c(O)cc(O)cc2O[C@@H]1c1cc(O)c(=O)c2c(O)c(O)cc([C@H]3Oc4cc(O)cc(O)c4C[C@H]3O)c2c1)c1cc(O)c(O)c(O)c1 [Theaflavin-3-gallate]", -1.192),
    ("COc1ccc2c(c1)OC[C@@H](c1cc(O)c(OC)c(OC)c1O)C2 [Colutehydroquinone]", 0.999),
    ("O=c1cc(-c2ccc(O)c(-c3c(O)cc(O)c4c(=O)cc(-c5ccc(O)cc5)oc34)c2)oc2cc(O)cc(O)c12", -0.309),
    ("O=C(/C=C/c1ccc(O)c(O)c1)c1ccc(O)cc1O", 0.15),
    ("O=C1C=CC(=O)c2c(O)ccc(O)c21", -0.791),
    ("O=C(O)c1ccc(O)c(O)c1O [2,3,4-Trihydroxybenzoic acid]", -0.39),
    ("Cl.Oc1ccc(CC2NCCc3cc(O)c(O)cc32)cc1 (centres unmarked) [Higenamine (hydrochloride)]", -1.059),
    ("COC(=O)[C@]1(O)C[C@@H](O)[C@@H](O)[C@H](OC(=O)/C=C/c2ccc(O)c(O)c2)C1", 0.274),
    ("O=c1c(O[C@@H]2O[C@H](CO)[C@@H](O)[C@H](O)[C@H]2O)c(-c2ccc(O)cc2)oc2cc(O)cc(O)c12", -0.638),
    ("COc1cc2c(cc1OC)[C@@H](Cc1ccc(O)c(Oc3cc4c(cc3OC)CCN(C)[C@@H]4Cc3ccc(O)cc3)c1)N(C)CC2", -0.081),
    ("COc1cc(CC(=O)O)ccc1O", 0.228),
    ("CCC1(O)C(=O)OCc2c1cc1n(c2=O)Cc2cc3cc(O)ccc3nc2-1 (racemic) [(±)-10-Hydroxycamptothecin]", 1.992),
    ("O=c1cc(-c2ccccc2)oc2cc(O[C@@H]3O[C@H](CO[C@@H]4O[C@H](CO)[C@@H](O)[C@H](O)[C@H]4O)[C@@H](O)[C@H](O)[C@H]3O)c(O)c(O)c12", -0.982),
]

* * *

- Assay target: tau (Homo sapiens, UniProt P10636)
- Assay text: MCE Phenols Library screening, tau biosensor cell seeding assay (AvZ)
- Assay type: cell-based
- Setup conditions: average Z score of the two replicates, MCE Phenols Library screen
av Z vs -0.5: less than gives True; not less than gives False.

# Molecule, Class name
records = [
    ("O=C(O[C@@H]1Cc2c(O)cc(O)cc2O[C@@H]1c1ccc(O)c(O)c1)c1cc(O)c(O)c(O)c1 [(-)-Epicatechin gallate]", "True"),
    ("COc1cc(/C=C/C(=O)O[C@H]2[C@H](O)[C@@H](CO)O[C@@]2(CO)O[C@H]2O[C@H](CO)[C@@H](O)[C@H](O)[C@H]2O)ccc1O", "False"),
    ("COc1cc(-c2oc3cc(OC)c(OC)c(O)c3c(=O)c2OC)ccc1O", "False"),
    ("O=C1c2ccccc2C(=O)c2c1ccc(O)c2O", "False"),
    ("NCCCN(CCCCNCCCNC(=O)CCc1ccc(O)c(O)c1)C(=O)CCc1ccc(O)c(O)c1", "True"),
    ("COc1cc2c(=O)c(-c3ccc(O)cc3)coc2cc1O", "False"),
    ("O=C(/C=C/c1ccc(O)cc1)OC[C@H]1O[C@@H](Oc2c(-c3ccc(O)cc3)oc3cc(O)cc(O)c3c2=O)[C@H](O)[C@@H](O)[C@@H]1O [Tribuloside]", "False"),
    ("O=C1C[C@@H](c2ccc(O)c(O)c2)Oc2cc(O)cc(O)c21", "False"),
    ("C[C@@H]1O[C@@H](O[C@@H]2[C@@H](O)[C@H](O)[C@@H](CO)O[C@H]2c2c(O)cc(O)c3c(=O)cc(-c4ccc(O)cc4)oc23)[C@H](O)[C@H](O)[C@H]1O [Vitexin-2\"-O-rhamnoside]", "False"),
    ("CC(=O)Oc1ccc(/C=C/c2cc(OC(C)=O)cc(OC(C)=O)c2)cc1", "True"),
    ("O=c1cc(-c2ccccc2)oc2cccc(O)c12 [5-Hydroxyflavone]", "True"),
    ("Cc1cc(O)c2c(=O)c3c(O)cc(O)c4c5c(O)cc(O)c6c(=O)c7c(O)cc(C)c8c1c2c(c34)c(c78)c65", "True"),
    ("O=C1c2ccc(O)cc2OCC1c1ccc(O)cc1 (stereo not drawn) [Dihydrodaidzein]", "True"),
    ("COc1cc2oc(-c3ccccc3)cc(=O)c2c(O)c1O", "True"),
    ("O=c1ccc2ccc(O)cc2o1", "True"),
    ("COc1cc2c(c(O)c1OC)-c1c(cc(OC)c(OC)c1OC)C[C@@H](C)[C@@H](C)C2", "False"),
    ("OC[C@H]1O[C@@H](Oc2cc(O)ccc2/C=C/c2cc(O)cc(O)c2)[C@H](O)[C@@H](O)[C@@H]1O [Oxyresveratrol 2-O-?-D-glucopyranoside]", "False"),
    ("COc1cc(/C=C/C(=O)O[C@H]2[C@H](O)C[C@](O)(C(=O)O)C[C@H]2O)ccc1O", "True"),
    ("O=c1c(O[C@@H]2O[C@H](CO)[C@@H](O)[C@H](O)[C@H]2O)c(-c2ccc(O)cc2)oc2cc(O)cc(O)c12", "True"),
    ("O=C(O[C@@H]1Cc2c(O)cc(O)cc2O[C@@H]1c1cc(O)c(O)c(O)c1)c1cc(O)c(O)c(O)c1 [(-)-Epigallocatechin Gallate]", "True"),
    ("CC[C@H]1CN2CCc3cc(OC)c(OC)cc3[C@@H]2C[C@@H]1C[C@H]1NCCc2cc(O)c(OC)cc21.Cl.Cl [Cephaeline (dihydrochloride)]", "False"),
    ("O=C1c2ccccc2C(=O)c2c(O)ccc(O)c21", "True"),
    ("COc1cc(CCC(O)CC(O)CCc2ccc(O)c(OC)c2)ccc1O (stereo not drawn) [Octahydrocurcumin]", "False"),
    ("O=c1c(O)c(-c2ccc(O)cc2)oc2cc(O)cc(O)c12", "False"),
    ("COc1c(O[C@@H]2O[C@H](CO)[C@@H](O)[C@H](O)[C@H]2O)cc2c(c1O)C(=O)c1c(cc(C)c(O)c1OC)C2=O [Aurantio-obtusin ?-D-glucoside]", "True"),
    ("O=c1c(O[C@@H]2OC[C@@H](O)[C@H](O)[C@H]2O)c(-c2ccc(O)c(O)c2)oc2cc(O)cc(O)c12", "False"),
    ("CCC1(c2ccc(O)cc2)NC(=O)N(C)C1=O (stereo not drawn) [4-Hydroxymephenytoin]", "False"),
    ("COC(=O)c1c(C)cc(OC(=O)c2c(C)cc(O)c(C=O)c2O)c(C)c1O", "True"),
    ("O=C(/C=C/c1ccc(O)c(O)c1)OC[C@H]1O[C@@H](OCCc2ccc(O)c(O)c2)[C@H](O)[C@@H](O)[C@@H]1O [Calceolarioside B]", "False"),
    ("O=C1N[C@@H]2C(=C[C@H](O)[C@@H](O)[C@H]2O)c2cc3c(c(O)c21)OCO3", "True"),
]

* * *

- Assay target: tau (Homo sapiens)
- Assay text: MCE Phenols Library screening, tau biosensor cell seeding assay (AvZ)
- Assay type: cell-based
- Setup conditions: Z score, replicate 1
Cut-off -0.09 on Z repl 1, inclusive. At or above means rule met; below means rule not met.

# Compound, Class name
records = [
    ("O=c1cc(-c2ccc(O)cc2)oc2cc(O[C@@H]3O[C@H](CO)[C@@H](O)[C@H](O)[C@H]3O)cc(O)c12 [Apigenin 7-glucoside]", "rule met"),
    ("COc1cc(/C=C/C(=O)O[C@H]2[C@H](O)[C@@H](CO)O[C@@]2(CO)O[C@H]2O[C@H](CO)[C@@H](O)[C@H](O)[C@H]2O)ccc1O", "rule not met"),
    ("OCC(O)c1ccc(O)c(O)c1 (centres unmarked) [4-(1,2-Dihydroxyethyl)benzene-1,2-diol]", "rule not met"),
    ("CCCCCCC/C=C/C(=O)CCc1ccc(O)c(OC)c1 [[8]-Shogaol]", "rule not met"),
    ("C/C=C/c1cc(OC)c2c(c1)C(C)C(c1ccc(O)c(OC)c1)O2 (centres unmarked) [Dehydrodiisoeugenol]", "rule met"),
    ("COc1cc2oc3cc(O)c(OC)c(CC=C(C)C)c3c(=O)c2c(O)c1CC=C(C)C", "rule not met"),
    ("COc1c2c3c4c(c(OC)c(=O)c5c(O)cc(OC)c(c6c(OC)cc(O)c(c1=O)c63)c54)[C@@H](C(C)=O)[C@@](C)(O)C2", "rule not met"),
    ("C[C@H]1O[C@@H](O[C@H]2[C@H](Oc3c(-c4ccc(O)cc4)oc4cc(O)cc(O)c4c3=O)O[C@@H](CO)[C@H](O)[C@H]2O)[C@H](O)[C@@H](O)[C@@H]1O [Kaempferol-3-O-glucorhamnoside]", "rule not met"),
    ("OC[C@H]1O[C@@H](Oc2cc(/C=C/c3cc(O)cc(O)c3)ccc2O)[C@H](O)[C@@H](O)[C@@H]1O [Piceatannol 3'-O-glucoside]", "rule met"),
    ("COc1cc(CCC(=O)CC(=O)CCc2ccc(O)c(OC)c2)ccc1O [Tetrahydrocurcumin]", "rule met"),
    ("C[C@@H]1O[C@@H](Oc2c(-c3ccc(O)cc3)oc3cc(O[C@@H]4O[C@@H](C)[C@H](O)[C@@H](O)[C@H]4O[C@@H]4O[C@H](CO)[C@@H](O)[C@H](O)[C@H]4O)cc(O)c3c2=O)[C@H](O)[C@H](O)[C@H]1O", "rule met"),
    ("CC=C1[C@H](O[C@@H]2O[C@H](CO)[C@@H](O)[C@H](O)[C@H]2O)OC=C(C(=O)OC)[C@H]1CC(=O)OC[C@H]1O[C@@H](OCCc2ccc(O)cc2)[C@H](O)[C@@H](O)[C@@H]1O (stereo in doubt) [Specneuzhenide]", "rule not met"),
    ("O=c1c(O)cc([C@H]2Oc3cc(O)cc(O)c3C[C@H]2O)cc2c([C@H]3Oc4cc(O)cc(O)c4C[C@H]3O)cc(O)c(O)c12", "rule not met"),
    ("COc1ccc(CC(=O)c2ccc(O)cc2O)cc1", "rule not met"),
    ("O=C(O[C@H](Cc1ccc(O)c(O)c1)C(=O)O)C1=Cc2cc(O)c(O)cc2[C@H](c2ccc(O)c(O)c2)[C@H]1C(=O)OC(Cc1ccc(O)c(O)c1)C(=O)O (stereo in doubt)", "rule not met"),
    ("O=C1c2ccccc2C(=O)c2c1ccc(O)c2O", "rule not met"),
    ("OCc1ccccc1O", "rule not met"),
    ("COc1cc(C(=O)O)cc(O)c1O", "rule not met"),
    ("COc1cc2c(CCNC(C)=O)c[nH]c2cc1O [6-Hydroxymelatonin]", "rule met"),
    ("CCC1(O)C(=O)OCc2c1cc1n(c2=O)Cc2cc3cc(O)ccc3nc2-1 (racemic) [(±)-10-Hydroxycamptothecin]", "rule met"),
    ("COc1cc(O)c(C(=O)/C=C/c2ccc(O)cc2)cc1CC=C(C)C", "rule not met"),
    ("CC(C)=CCc1c(O)cc2oc3cc(O)c(O)c(CC=C(C)C)c3c(=O)c2c1O", "rule not met"),
    ("O=C(O)c1c(O)cccc1O [2,6-Dihydroxybenzoic acid]", "rule met"),
    ("O=C(O)c1ccc(O)c(O)c1", "rule not met"),
    ("COc1ccc(C=O)cc1", "rule not met"),
    ("O=c1ccoc2cc(O)cc(O)c12 [5,7-Dihydroxychromone]", "rule not met"),
    ("COc1cc(O)c(C(=O)/C=C/c2ccc(O)cc2)c(OC)c1", "rule not met"),
    ("COc1cc(O)cc(OC)c1", "rule met"),
]
